Molecular target: T1, Human soluble IL-6R (human, UniProt P08887 20-358)
T1 construct: Soluble recombinant form; biotinylated in some assays; also called hIL-6R; human IL-6R
T1 sequence (looked up): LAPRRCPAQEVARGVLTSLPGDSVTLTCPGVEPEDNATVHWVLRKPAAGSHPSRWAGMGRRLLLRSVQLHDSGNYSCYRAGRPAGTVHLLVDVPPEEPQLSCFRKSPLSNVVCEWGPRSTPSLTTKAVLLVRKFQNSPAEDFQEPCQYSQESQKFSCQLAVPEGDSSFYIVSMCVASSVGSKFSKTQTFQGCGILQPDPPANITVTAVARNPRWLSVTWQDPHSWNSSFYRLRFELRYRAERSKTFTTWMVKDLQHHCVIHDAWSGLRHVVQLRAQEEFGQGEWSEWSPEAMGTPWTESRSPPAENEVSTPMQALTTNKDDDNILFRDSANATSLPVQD
Experiment: Biacore T100
pKd: −log10 of the molar value.
Response key: Met means pKd >= 10; Not met means pKd < 10.

Please review the entries below; each comes with its answer.
Binder	Group
IL6R65 (VHH, also called ILR65; parent Nanobody) VHH: EVQLVESGGGLVQPGGSLRLSCAASGSIFKVNAMGWYRQAPGKGRELVAGIISGGSTNYADSVKGRFTISRDNAKNTLYLQMNSLRPEDTAVYYCAFVTTNSDYDLGRDYWGQGTLVTVSS	Not met
PMP21D11 (VHH, not shown: c-myc and (His)6 tags) VHH: EVQLVESGGGLVQPGGSLRLSCAASGSVFKINVMAWYRQAPGKGRELVAGIVTGGSTSYADSVKGRFTISRDNAKNTLYLQMNSLRPEDTAVYYCAFITTESDYDLGRRYWGQGTLVTVSS	Met
PMP20A11 (VHH, also called IL6R20A11; IL6R300; not shown: c-myc and (His)6 tags) VHH: EVQLVESGGGLVQPGGSLRLSCAASGSVFKINVMAWYRQAPGKGRELVAGIISGGSTSYADSVKGRFTISRDNAKNTLYLQMNSLRPEDTAVYYCAFITTESDYDLGRRYWGQGTLVTVSS	Met
PMP21A10 (VHH, not shown: c-myc and (His)6 tags) VHH: EVQLVESGGGLVQPGGSLRLSCAASGSIFKINVMAWYRQAPGKGRELVAGIVTGGSTSYADSVKGRFTISRDNAKNTLYLQMNSLRPEDTAVYYCAFITTESDYDLGRRYWGQGTLVTVSS	Met
PMP20F6 (VHH, not shown: c-myc and (His)6 tags) VHH: EVQLVESGGGLVQPGGSLRLSCAASGSVFKINVMAWYRQAPGKGRELVAGIVSGGSTSYADSVKGRFTISRDNAKNTLYLQMNSLRPEDTAVYYCAFITTNSDYDLGRRYWGQGTLVTVSS	Met

For the next question, use this binder.
Q: Check this binder for pKd at or above 10: PMP20E10 (VHH, not shown: c-myc and (His)6 tags) VHH: EVQLVESGGGLVQPGGSLRLSCAASGSVFKINVMAWYRQAPGKGRELVAGIVSGGSTSYADSVKGRFTISRDNAKNTLYLQMNSLRPEDTAVYYCAFITTESDYDLGRRYWGQGTLVTVSS
Result: Met

Data provenance: patent US20120077731A1
